- Tested on: Wolbachia pipientis
- test summary: Anti-Wolbachia Cell-Based Screen
- Type: functional
- Parameters: scale not given: in the data most compounds retested in dose-response had high values
- reported conditions: 5 µM
About 13,000 (27%) of roughly 48,000 compounds showed an effect of 50% or more. The list shows a part of the results.
Documented Percent Effect across a set of compounds
// return numeric value only (unit: %, not printed)

Here's what some known entries look like.
compound	reported measurement
CCO[C@H]1CN(CC2CC2)[C@@H]2CCCO[C@H]12.O=C(O)C(F)(F)F	109.7
CO[C@H]1CN(Cc2ccc(C)o2)[C@@H]2CCCO[C@H]12.O=C(O)C(F)(F)F	-4.054
Cc1noc(C)c1CN1CCCC2(CCN(C(=O)C3CC3)C2)C1 (centres undefined)	106.9
COCCCNC(=O)c1cn(C(C)(C)C)c2ncccc12	120.5
Cc1noc(C)c1CN1C[C@H](OCC(=O)N(C)C)[C@H]2OCCC[C@H]21.O=C(O)C(F)(F)F	-4.98
CN(Cc1cncnc1)[C@H]1CN(CC2CC2)[C@@H]2CCCO[C@@H]21.O=C(O)C(F)(F)F.O=C(O)C(F)(F)F	-10.71
Cc1noc(C)c1CN1CC2(CCCCN2C)CC1=O.O=C(O)C(F)(F)F (centres undefined)	-9.804
CO[C@H]1CN(CC2CCOCC2)[C@@H]2CCCO[C@H]12.O=C(O)C(F)(F)F	117.1

# ---- query compound ----
Q: Given "Cc1noc(C)c1CN1CC[C@H]2O[C@@H](C(=O)N3CCCC3)CC[C@H]21.O=C(O)C(F)(F)F" , state its recorded Percent Effect.
A: 9.45

###

- System: Wolbachia pipientis
- test summary: Anti-Wolbachia Cell-Based Screen
- Format: functional
- Set-up: scale not given: in the data most compounds retested in dose-response had high values
- reported conditions: 5 µM
In all, about 48,000 compounds went through this assay and about 13,000 (27%) showed an effect of 50% or more. Some of the results follow.
Documented Percent Effect across a set of compounds
// return numeric value only (unit: %, not printed)

Here's what some known entries look like.
chemical structure	Percent Effect (%)
CNc1ncccc1C(=O)N1CCN(C)C2(CCN(C)CC2)C1	-3.315
CCN1CCN(C(=O)c2cn(Cc3ccccc3)c3ncccc23)CC1	118.7

# ---- query compound ----
Q: Given "CC(C)NC(=O)[C@@H]1C[C@H]2NCC[C@H]2O1.Cl" , state its recorded Percent Effect.
A: 109.5

###

- Test system: Wolbachia pipientis
- test summary: Anti-Wolbachia Cell-Based Screen
- Type: functional
- Set-up: scale not given: in the data most compounds retested in dose-response had high values
- reported conditions: 5 µM
Out of some 48,000 compounds screened, about 13,000 (27%) showed an effect of 50% or more. The list shows a part of the results.
measure: Percent Effect (%)
// return numeric value only (unit: %, not printed)

Here's what some known entries look like.
compound	Percent Effect / %
Cl.O=C(N1CCOCC1)N1CCCC2(CCCNC2)C1 (centres undefined)	-22.36
O=C(c1onc2ccccc12)N1CCC2(CCCNC2)C1 (centres undefined)	102.5

Q: Given O=C(c1nc(=O)[nH]c2ccccc12)N1CCCC2(CCNC2)C1 (centres undefined) , state its recorded Percent Effect.
A: 12.22

Q: Given "CS(=O)(=O)N1CCN(CC2CC2)c2ncccc2C1" , state its recorded Percent Effect.
A: 6.456

###

- Tested on: Wolbachia pipientis
- test summary: Anti-Wolbachia Cell-Based Screen
- Type: functional
- Parameters: scale not given: in the data most compounds retested in dose-response had high values
- reported conditions: 5 µM
Screen size: about 48,000 compounds; about 13,000 (27%) showed an effect of 50% or more. The list shows a part of the results.
measure: Percent Effect (%)
// return numeric value only (unit: %, not printed)

Here's what some known entries look like.
compound	scale unit	Percent Effect
O=C(O)C(F)(F)F.O=C(O)C(F)(F)F.c1ccc(CN2C[C@H]3CCC[C@@]3(COCC3CC3)C2)nc1	%	8.685
Cn1cc(CN2C[C@H]3CCC[C@@]3(COc3cccnc3)C2)cn1	%	95.98
CCOCCNC1(c2ccc(Cl)cc2)CCOCC1	%	-4.765
Cl.O=C(C1CCC1)N1CCC2(CCNCC2)C1	%	-22.91
Cc1c(CN2CCCC(C(=O)c3ccccc3)C2)cc(C#N)n1C (stereo not given)	%	-33.94
CC(Cn1ccnc1)NS(=O)(=O)c1ccc(C#N)c(Cl)c1 (stereo not given)	%	2.375
Cc1ccccc1-n1cc(C2=CCN(CCN3CCOCC3)CC2)cn1	%	-7.999
Cc1cc(CC(=O)N2CCN(CC(C)C)[C@@H]3CS(=O)(=O)C[C@@H]32)ccc1F	%	-16.98
c1ccc(COC[C@@]23CCC[C@@H]2CN(Cc2ccccn2)C3)nc1	%	-0.5697

Q: Given "Cc1ccc(F)cc1CC(=O)N(CCN1CCOCC1)Cc1ccco1" , state its recorded Percent Effect.
A: -4.12

###

- Tested on: Wolbachia pipientis
- test summary: Anti-Wolbachia Cell-Based Screen
- Assay type: functional
- Set-up: scale not given: in the data most compounds retested in dose-response had high values
- reported conditions: 5 µM
Among all 48,000 compounds or so, about 13,000 (27%) showed an effect of 50% or more. Some of the results follow.
measure: Percent Effect (%)
// return numeric value only (unit: %, not printed)

compound	tested on	measure	scale unit	reported measurement
CCC1CNCc2cc3c(C)ccc(C)c3nc2O1 (centres undefined)	Wolbachia pipientis	Percent Effect	%	108.6
CC(C)(C)CC(=O)N1C[C@H]2CCN[C@H]2C1	Wolbachia pipientis	Percent Effect	%	123.1
Cc1oc(-c2ccco2)nc1CC(=O)N1CCN(C2CCC2)CC1	Wolbachia pipientis	Percent Effect	%	0.04228
CC(=O)N1CCC2(CC1)c1ncc(-c3cccnc3)n1CCN2C	Wolbachia pipientis	Percent Effect	%	84.46
Cc1ccc2c(c1)C(NC1CC1)CC21CCNCC1.Cl (centres undefined)	Wolbachia pipientis	Percent Effect	%	121
Cc1nc(CC(=O)N2CCN(C)CC2c2ccccc2)cs1 (centres undefined)	Wolbachia pipientis	Percent Effect	%	-2.978
OCCN1CCN(Cc2cc3c(cc2Br)OCCO3)CC1	Wolbachia pipientis	Percent Effect	%	1.369
CN1CCN2C(=O)N(c3ccccc3)C[C@H]2C1	Wolbachia pipientis	Percent Effect	%	3.165

Q: Given Cc1ccnc(NCCNC(=O)C2CC3(CCNCC3)CN2C)c1 (centres undefined) , state its recorded Percent Effect.
A: 2.033

Q: Given CCC1CNCc2cc3c(OC)ccc(OC)c3nc2O1 (centres undefined) , state its recorded Percent Effect.
A: 82.52

Q: Given "CC(C)CCC(=O)N1C[C@H]2CCN[C@H]2C1" , state its recorded Percent Effect.
A: 107.3

Q: Given "O=S(=O)(c1ccccc1)N1C[C@@H]2CCN[C@@H]2C1" , state its recorded Percent Effect.
A: -39.01

Q: Given "OC[C@H]1CN2CCN(c3ccccn3)C[C@@H]2[C@@H]1c1ccccc1" , state its recorded Percent Effect.
A: 97.55

Q: Given "Cl.O=C(N[C@H]1CN[C@H]2CCCO[C@H]21)c1cscn1" , state its recorded Percent Effect.
A: 6.195

###

- Test system: Wolbachia pipientis
- test summary: Anti-Wolbachia Cell-Based Screen
- Format: functional
- Parameters: scale not given: in the data most compounds retested in dose-response had high values
- reported conditions: 5 µM
The whole screen tested about 48,000 compounds, of which about 13,000 (27%) showed an effect of 50% or more. The list shows a part of the results.
Documented Percent Effect across a set of compounds
// return numeric value only (unit: %, not printed)

Here's what some known entries look like.
compound	reported measurement
CCOc1ccc(C2SCC(=O)Nc3c2c(=O)[nH]n3C(CC)CC)cc1 (stereo not drawn)	117.7
CCCOc1ccc(C2SCC(=O)Nc3c2c(=O)[nH]n3C(C)C)cc1 (stereo not drawn)	107.1

# ---- query compound ----
Q: Given CC(C)COc1ccc(C2SCC(=O)Nc3c2c(=O)[nH]n3C(C)C)cc1 (stereo not drawn) , state its recorded Percent Effect.
A: 105.8

###

- Test system: Wolbachia pipientis
- test summary: Anti-Wolbachia Cell-Based Screen
- Type: functional
- Design: scale not given: in the data most compounds retested in dose-response had high values
- reported conditions: 5 µM
In all, about 48,000 compounds went through this assay and about 13,000 (27%) showed an effect of 50% or more. The list shows a part of the results.
Threshold 10%: Percent Effect strictly smaller gives y, otherwise n.

molecule	classification
COc1ccc(CN2C[C@H]3CCC[C@@H](CN(C)C4CC4)[C@H]3C2)cn1.O=C(O)C(F)(F)F.O=C(O)C(F)(F)F	n
Cn1ccnc1NC[C@@H]1CCC[C@@H]2CN(Cc3cccnc3)C[C@@H]21.O=C(O)C(F)(F)F	n
O=C1N(Cc2ccccn2)C[C@H]2CN(C3CCOCC3)CCN12	y

Q: Confirm or reject: Percent Effect of "CN(C[C@@H]1CCC[C@@H]2CN(Cc3cccnc3)C[C@@H]21)C1CC1.O=C(O)C(F)(F)F.O=C(O)C(F)(F)F" lies strictly below 10%
A: y

Q: Confirm or reject: Percent Effect of "NCC1(c2cccc(C(F)(F)F)c2)CCC1" lies strictly below 10%
A: n

Q: Confirm or reject: Percent Effect of O=C(O)C(F)(F)F.O=C(O)C(F)(F)F.O=C(O)C(F)(F)F.c1cc(CN2CCCC23CCCN(Cc2ccoc2)C3)ccn1 (stereo not drawn) lies strictly below 10%
A: y

Q: Confirm or reject: Percent Effect of "O=C(N1CCCO1)[C@@]12CCO[C@@H]1CCN(Cc1cccnc1)C2.O=C(O)C(F)(F)F.O=C(O)C(F)(F)F" lies strictly below 10%
A: n

Q: Confirm or reject: Percent Effect of "O=S(=O)(NC[C@H]1C[C@@H]2CCN1C[C@@H]2CN1CCOCC1)c1ccccc1" lies strictly below 10%
A: y
